Hello, the source for this data is patent US11974988B2, in case you need it.

# assay.target: NaV1.2 (Mus musculus)
# Construct: N1E-115 cells that constitutively express NaV1.2; endogenous in cells; host or cells: N1E-115 mouse neuroblastoma cells
# Sequence (B1AWN6 whole entry): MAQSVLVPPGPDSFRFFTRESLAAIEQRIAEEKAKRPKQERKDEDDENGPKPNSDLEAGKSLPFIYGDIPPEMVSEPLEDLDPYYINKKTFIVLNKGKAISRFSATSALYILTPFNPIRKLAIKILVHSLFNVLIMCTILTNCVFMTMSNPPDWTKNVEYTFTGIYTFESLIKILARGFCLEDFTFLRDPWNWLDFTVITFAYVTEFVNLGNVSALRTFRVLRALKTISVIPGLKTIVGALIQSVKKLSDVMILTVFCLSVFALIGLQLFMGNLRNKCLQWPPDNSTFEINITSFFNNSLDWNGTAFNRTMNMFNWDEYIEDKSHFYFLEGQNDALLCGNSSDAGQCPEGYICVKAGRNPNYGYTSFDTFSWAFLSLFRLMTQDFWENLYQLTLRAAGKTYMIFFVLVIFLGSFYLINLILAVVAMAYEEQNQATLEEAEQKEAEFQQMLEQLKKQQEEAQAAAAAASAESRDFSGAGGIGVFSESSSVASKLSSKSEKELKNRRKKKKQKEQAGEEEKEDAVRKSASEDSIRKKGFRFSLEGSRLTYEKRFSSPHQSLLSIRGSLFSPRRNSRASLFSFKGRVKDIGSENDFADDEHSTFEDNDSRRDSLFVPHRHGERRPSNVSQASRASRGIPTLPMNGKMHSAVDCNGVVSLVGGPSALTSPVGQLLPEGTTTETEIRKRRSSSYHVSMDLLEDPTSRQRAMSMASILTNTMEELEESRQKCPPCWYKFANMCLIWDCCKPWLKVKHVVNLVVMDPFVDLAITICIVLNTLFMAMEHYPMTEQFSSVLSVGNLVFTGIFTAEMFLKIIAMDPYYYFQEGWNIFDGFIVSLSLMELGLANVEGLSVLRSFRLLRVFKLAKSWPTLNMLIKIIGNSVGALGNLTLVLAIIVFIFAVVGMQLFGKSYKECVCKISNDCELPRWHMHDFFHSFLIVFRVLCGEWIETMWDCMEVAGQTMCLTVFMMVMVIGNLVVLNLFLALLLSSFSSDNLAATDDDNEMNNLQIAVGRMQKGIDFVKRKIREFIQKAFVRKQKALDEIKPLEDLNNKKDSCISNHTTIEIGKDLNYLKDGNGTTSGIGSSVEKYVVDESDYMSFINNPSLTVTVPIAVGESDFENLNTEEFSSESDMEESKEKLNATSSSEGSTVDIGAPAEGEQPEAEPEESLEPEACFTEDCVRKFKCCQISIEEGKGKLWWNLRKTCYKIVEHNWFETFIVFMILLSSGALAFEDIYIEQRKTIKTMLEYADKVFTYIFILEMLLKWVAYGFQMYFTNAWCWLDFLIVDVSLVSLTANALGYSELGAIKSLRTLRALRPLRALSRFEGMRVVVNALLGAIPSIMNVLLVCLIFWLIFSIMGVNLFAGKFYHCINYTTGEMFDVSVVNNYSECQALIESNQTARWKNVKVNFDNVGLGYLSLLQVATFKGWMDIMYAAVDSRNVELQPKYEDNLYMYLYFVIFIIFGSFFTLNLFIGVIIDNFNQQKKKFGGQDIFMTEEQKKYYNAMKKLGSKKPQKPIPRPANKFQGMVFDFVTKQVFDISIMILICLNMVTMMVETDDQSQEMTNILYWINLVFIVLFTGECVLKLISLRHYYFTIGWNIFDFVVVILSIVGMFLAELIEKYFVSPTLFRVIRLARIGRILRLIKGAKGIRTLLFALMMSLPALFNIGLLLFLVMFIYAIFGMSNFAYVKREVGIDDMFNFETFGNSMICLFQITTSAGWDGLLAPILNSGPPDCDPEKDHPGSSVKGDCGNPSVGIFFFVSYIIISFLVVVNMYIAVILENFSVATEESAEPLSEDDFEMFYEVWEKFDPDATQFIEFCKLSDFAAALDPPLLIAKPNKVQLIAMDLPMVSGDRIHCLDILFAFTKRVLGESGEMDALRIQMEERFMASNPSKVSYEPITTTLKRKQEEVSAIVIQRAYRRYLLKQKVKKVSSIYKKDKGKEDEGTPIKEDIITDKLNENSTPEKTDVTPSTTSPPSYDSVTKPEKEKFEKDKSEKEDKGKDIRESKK
# assay.method.text: NaV currents recorded by whole-cell patch clamp from N1E-115 neuroblastoma cells expressing NaV1.2
# Assay type: cell-based
# stated.conditions: read-out: Selectivity IC50 Nav1.2
quantity.name: IC50
The answer consists of two parts: a number and, after it, its unit.

Qu. Please give the measured IC50 for this compound: Nc1nc(-c2cccc3ccccc23)c(Br)s1 [drawing 65]
Ans. 30 µM

---

# assay.method.text: SKA-41 concentrations in plasma and brain by LC/MS after i.p. injection
# Type: in vivo
# stated.conditions: Sprague-Dawley, rat, brain/plasma, ip; 10 mg/kg i.p. in Miglyol 812, 1 h, 3 male rats; read-out: brain/plasma ratio
quantity.name: Kp at 1 h

Qu. Consider the compound Nc1nc(-c2ccc(OC(F)(F)F)cc2)cs1 [SKA-41] and give its measured Kp at 1 h.
Ans. ~7

---

# System: activity-regulated Gln/MeAIB transport (SNAT activity) in hippocampal neurons
# assay.method.text: Activity-regulated (spontaneous, 4-AP- or K+-stimulated) [14C]-MeAIB transport in primary hippocampal neurons
# Format: cell-based, rat
# stated.conditions: Rattus norvegicus, Hippocampal neuron; 4-AP-stimulated (depolarization) [14C]-MeAIB uptake, DIV16; n in brackets; read-out: SNAT Activity IC50, 4-AP
For each record, write down the corresponding IC50.
Give bare numbers, in µM.

Cc1ccc(-c2nc(N)sc2Br)c2ccccc12 : 4.4
Nc1nc(-c2cccc3ccccc23)c(Cl)s1 [drawing 70] : 5.2
Cc1ccc(-c2nc(N)sc2Cl)c2ccccc12 : 7.4

Below are 3 molecules. Give each one its IC50.
1. Cc1ccc(-c2csc(N)n2)c2ccccc12 [drawing 63]
2. Nc1nc(-c2ccc3ccccc3c2)c(Br)s1 [drawing 66]
3. Nc1nc(-c2ccc3ccccc3c2)c(Cl)s1 [drawing 71]

Ans.
[11.7, 6.8, 9.3]

---

quantity.name: melting point

// input: 5 molecules below; output: melting point for each
1. c1ccc(Nc2nc(-c3ccccc3)cs2)cc1
2. Cc1ccc2cc(-c3csc(N)n3)ccc2c1
3. Cc1ccc2cccc(-c3csc(N)n3)c2c1
4. Nc1nc(-c2ccc3ccccc3c2)c(Br)s1
5. Clc1ccc(Nc2nc(-c3cccc4ccccc34)cs2)cc1Cl

Ans.
135 to 137 °C
178 to 179 °C
154 to 156 °C
140 to 141 °C
243 to 244 °C
